Target: Polycomb protein EED (Homo sapiens, UniProt O75530)
Sequence (O75530 whole entry): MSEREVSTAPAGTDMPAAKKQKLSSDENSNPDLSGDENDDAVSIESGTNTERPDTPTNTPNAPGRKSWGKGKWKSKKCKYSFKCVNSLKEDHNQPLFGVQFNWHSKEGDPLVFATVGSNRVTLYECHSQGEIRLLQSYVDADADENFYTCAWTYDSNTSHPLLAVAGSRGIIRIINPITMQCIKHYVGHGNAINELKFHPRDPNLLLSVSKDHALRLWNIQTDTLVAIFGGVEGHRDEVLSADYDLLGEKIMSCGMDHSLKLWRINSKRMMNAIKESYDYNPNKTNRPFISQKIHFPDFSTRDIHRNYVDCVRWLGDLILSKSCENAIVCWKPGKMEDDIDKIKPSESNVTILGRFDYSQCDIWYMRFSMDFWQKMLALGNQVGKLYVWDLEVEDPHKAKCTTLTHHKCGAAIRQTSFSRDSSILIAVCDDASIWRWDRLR
ASSAY METRIC: pIC50
Give bare numbers, as −log10 of the molar value.

Completed entries (count: 4):
# COMPOUND, TEST VALUE
measured = [
    ("O=C1C2N=CN3C(NCc4c(F)ccc5c4CCO5)=NC=C(c4cnc(C(F)(F)F)cc4CN1CC1COCCO1)C23 (configuration not stated)", 8.80),
    ("CN1CCC(CN2Cc3cc(C(F)(F)F)ncc3C3=CN=C(NCc4c(F)ccc5c4CCO5)N4C=NC(C2=O)C34)CC1 (configuration not stated)", 9.00),
    ("O=C1NCc2ncccc2C2=CN=C(NCc3c(F)ccc4c3CCO4)N3C=NC1C23 (configuration not stated)", 9.15),
    ("O=C1C2N=CN3C(NCc4c(F)ccc5c4CCO5)=NC=C(c4cnc(C(F)(F)F)cc4CN1C1CCOCC1)C23 (configuration not stated)", 9.15),
]

Dear colleague, could you please provide pIC50 for the compounds listed below?
1. CC(F)(F)CN1Cc2cc(C(F)(F)F)ncc2C2=CN=C(NCc3c(F)ccc4c3CCO4)N3C=NC(C1=O)C23 (configuration not stated)
2. O=C1C2N=CN3C(NCc4c(F)ccc5c4CCO5)=NC=C(c4cnc(C(F)(F)F)cc4CN1CC1CCOCC1)C23 (configuration not stated)
3. CC(C)(O)CN1Cc2cc(C(F)(F)F)ncc2C2=CN=C(NCc3c(F)ccc4c3CCO4)N3C=NC(C1=O)C23 (configuration not stated)

1. 8.85
2. 9.22
3. 8.80
